This collection of values is drawn from patent US20230158141A1.

Target: T1, IL-10R1-Fc (UniProt Q13651 22-235, limits assumed)
T1 sequence (looked up): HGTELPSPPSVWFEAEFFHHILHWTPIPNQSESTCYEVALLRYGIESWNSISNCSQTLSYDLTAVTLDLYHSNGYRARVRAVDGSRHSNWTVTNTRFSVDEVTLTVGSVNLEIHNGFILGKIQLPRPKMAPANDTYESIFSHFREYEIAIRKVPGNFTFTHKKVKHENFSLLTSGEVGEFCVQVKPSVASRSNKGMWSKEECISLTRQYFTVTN
Assay: ELISA, IL-10R1-Fc coated
Give measured Decreased fold of binding to ligand after Conjugating with S48 for each item. Keep answers brief.
Give bare numbers, in fold.

IL-10 Lys119Cys-S48 (ligand, human, UniProt P22301 19-178, looked up, S48 on Cys 119, mature) SPGQGTQSENSCTHFPGNLPNMLRDLRDAFSRVKTFFQMKDQLDNLLLKESLLEDFKGYLGCQALSEMIQFYLEEVMPQAENQDPDIKAHVNSLGENLKTLRLRLRRCHRFLPCENKSCAVEQVKNAFNKLQEKGIYKAMSEFDIFINYIEAYMTMKIRN    3

Quick request: Decreased fold of binding to ligand after Conjugating with S48 for each listed item, please.
1. IL-10 Tyr149Cys-S48 (ligand, human, UniProt P22301 19-178, looked up, S48 on Cys 149, mature) SPGQGTQSENSCTHFPGNLPNMLRDLRDAFSRVKTFFQMKDQLDNLLLKESLLEDFKGYLGCQALSEMIQFYLEEVMPQAENQDPDIKAHVNSLGENLKTLRLRLRRCHRFLPCENKSKAVEQVKNAFNKLQEKGIYKAMSEFDIFINCIEAYMTMKIRN
2. IL-10 Asn97Cys-S48 (ligand, human, UniProt P22301 19-178, looked up, S48 on Cys 97, mature) SPGQGTQSENSCTHFPGNLPNMLRDLRDAFSRVKTFFQMKDQLDNLLLKESLLEDFKGYLGCQALSEMIQFYLEEVMPQAENQDPDIKAHVNSLGECLKTLRLRLRRCHRFLPCENKSKAVEQVKNAFNKLQEKGIYKAMSEFDIFINYIEAYMTMKIRN

1. 5
2. 5
